Every entry's value here was drawn from patent US20030186997A1.

We begin with a simple list: items and their reported melting point.

Here are 3 compounds together with their reported answers.
O=c1c2c[nH]nc2ncn1Cc1ccncc1; 220 to 221 °C
CCCn1cc2c(=O)n(Cc3ccccn3)cnc2n1; 179 to 181 °C
Cn1cc2c(=O)n(Cc3ccccc3)cnc2n1; 202 to 204 °C

Inquiry: Can you share its melting point? I mean this compound: CC(C)n1cc2c(=O)n(Cc3c(F)cccc3Cl)cnc2n1
Reply text: 159 to 161 °C

Inquiry: Can you share its melting point? I mean this compound: O=c1c2c[nH]nc2ncn1Cc1ccccc1C(F)(F)F
Reply text: 168 to 171 °C

Inquiry: Can you share its melting point? I mean this compound: Cn1cc2c(=O)n(Cc3ccc(C(F)(F)F)cc3)cnc2n1
Reply text: 211 to 212 °C

Inquiry: Can you share its melting point? I mean this compound: Cn1cc2c(=O)n(Cc3ccc(F)cc3)cnc2n1
Reply text: 216 to 217 °C

Inquiry: Can you share its melting point? I mean this compound: CCCCn1cc2c(=O)n(Cc3ccc(C)cc3)cnc2n1
Reply text: 146 to 147 °C

Inquiry: Can you share its melting point? I mean this compound: O=c1c2cn(CC3CCCO3)nc2ncn1Cc1ccccc1Cl (stereo not drawn)
Reply text: 128 to 130 °C

Inquiry: Can you share its melting point? I mean this compound: Cc1ccccc1Cn1cnc2n[nH]cc2c1=O
Reply text: 221 to 222 °C

Inquiry: Can you share its melting point? I mean this compound: CCn1cc2c(=O)n(Cc3ccccn3)cnc2n1
Reply text: 190 to 191 °C
